Target: UniProtKB P51661
Sequence (P51661 1-386): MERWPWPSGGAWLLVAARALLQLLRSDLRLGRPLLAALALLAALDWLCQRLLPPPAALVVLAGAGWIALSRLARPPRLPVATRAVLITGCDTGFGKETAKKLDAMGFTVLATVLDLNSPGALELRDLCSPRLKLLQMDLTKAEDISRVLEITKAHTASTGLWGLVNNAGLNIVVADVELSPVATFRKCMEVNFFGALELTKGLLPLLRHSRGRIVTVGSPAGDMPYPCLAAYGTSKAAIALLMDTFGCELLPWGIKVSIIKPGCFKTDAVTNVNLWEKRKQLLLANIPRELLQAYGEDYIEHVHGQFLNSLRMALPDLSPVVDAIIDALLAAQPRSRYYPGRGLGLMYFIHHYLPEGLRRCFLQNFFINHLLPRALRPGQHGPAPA
Assay: scintillation proximity assay (SPA), microsomes of HEK-293 cells transfected with mouse 11β-HSD2
Assign IC50 to each entry below.

Cc1c(CN2CCCCC2)oc2c1C(=O)C(=O)c1c-2ccc2c1CCCC2(C)C [Compound 29b] | > 100 µM
Cc1c(CN2CCN(C)CC2)oc2c1C(=O)C(=O)c1c-2ccc2c1CCCC2(C)C [Compound 29d] | > 100 µM
Cc1coc2c1C(=O)C(=O)c1c-2ccc2c1CCC(O)C2(C)C (centres unmarked) | > 100 µM

Provide reported IC50 for each item, in the same order as listed.
1. Cc1c(Br)oc2c1C(=O)C(=O)c1c-2ccc2c1C=CCC2(C)C
2. Cc1coc2c1C(=O)C(=O)c1c-2ccc2c1C[C@@H](O)CC2(C)C

Result:
1. > 100 µM
2. > 10 µM

* * *

biological target: mouse 11β-HSD2 (Mus musculus, UniProt P51661); assay: scintillation proximity assay (SPA), microsomes of HEK-293 cells transfected with mouse 11β-HSD2
Reported property: IC50

Please review the entries below; each comes with its answer.
Cc1coc2c1C(=O)C(=O)c1c-2ccc2c1CCCC2(C)C | > 1000 µM
Cc1coc2c1C(=O)C(=O)c1c-2ccc2c1C=CCC2(C)C | > 100 µM

Request: Identify the reported IC50 for the following entry. C[C@@H](CO)C1=C(N)c2ccc3c(c2C(=O)C1=O)CCCC3(C)C
Result: > 10 µM
